B1: library; numbered along this chain (parent)
chain: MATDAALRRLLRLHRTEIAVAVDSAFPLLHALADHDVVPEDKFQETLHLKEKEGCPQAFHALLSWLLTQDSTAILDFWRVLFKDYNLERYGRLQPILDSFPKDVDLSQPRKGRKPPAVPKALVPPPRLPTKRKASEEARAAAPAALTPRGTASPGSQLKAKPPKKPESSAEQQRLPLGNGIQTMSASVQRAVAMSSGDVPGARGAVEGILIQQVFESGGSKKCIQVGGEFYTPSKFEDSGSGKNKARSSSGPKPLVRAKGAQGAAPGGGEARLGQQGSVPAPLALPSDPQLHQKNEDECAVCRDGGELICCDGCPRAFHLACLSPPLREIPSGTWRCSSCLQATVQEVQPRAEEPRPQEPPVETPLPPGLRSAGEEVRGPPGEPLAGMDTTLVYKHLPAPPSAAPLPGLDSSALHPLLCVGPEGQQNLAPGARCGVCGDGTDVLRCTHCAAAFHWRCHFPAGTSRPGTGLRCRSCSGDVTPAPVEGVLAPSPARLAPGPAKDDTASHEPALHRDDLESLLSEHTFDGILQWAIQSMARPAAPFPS

variants of: B1; experiment: AIRE transcriptional activation functional score (insulin promoter-GFP; nonsense median 0, synonymous median 1) (normalised score); higher = higher AIRE activity (more reporter activation); settings: with insulin promoter-GFP reporter in HEK293
Threshold check on AIRE transcriptional activation functional score: at or above 1 gives met, strictly below gives not met.

{"variantId": "S64G", "assignedLabel": "not met"}
{"variantId": "S338E", "assignedLabel": "not met"}
{"variantId": "T468W", "assignedLabel": "met"}
{"variantId": "I309G", "assignedLabel": "met"}
{"variantId": "G477S", "assignedLabel": "not met"}
{"variantId": "N86I", "assignedLabel": "not met"}
{"variantId": "V484T", "assignedLabel": "met"}
{"variantId": "R203F", "assignedLabel": "not met"}
{"variantId": "V226Q", "assignedLabel": "not met"}
{"variantId": "S372P", "assignedLabel": "met"}
{"variantId": "S287P", "assignedLabel": "not met"}
{"variantId": "Q425V", "assignedLabel": "not met"}
{"variantId": "S168W", "assignedLabel": "met"}
{"variantId": "D4N", "assignedLabel": "not met"}
{"variantId": "P286F", "assignedLabel": "met"}
{"variantId": "I74G", "assignedLabel": "not met"}
{"variantId": "V192I", "assignedLabel": "met"}
{"variantId": "V104Q", "assignedLabel": "met"}
{"variantId": "D238T", "assignedLabel": "not met"}
{"variantId": "L327T", "assignedLabel": "not met"}
{"variantId": "S464P", "assignedLabel": "met"}
{"variantId": "V80F", "assignedLabel": "not met"}
{"variantId": "T16P", "assignedLabel": "not met"}
{"variantId": "Q290I", "assignedLabel": "not met"}
{"variantId": "F59K", "assignedLabel": "not met"}
{"variantId": "D41H", "assignedLabel": "not met"}
{"variantId": "E171F", "assignedLabel": "met"}
{"variantId": "K52I", "assignedLabel": "not met"}
{"variantId": "R113D", "assignedLabel": "not met"}
{"variantId": "E508K", "assignedLabel": "not met"}
{"variantId": "A489G", "assignedLabel": "not met"}
{"variantId": "R203E", "assignedLabel": "not met"}
{"variantId": "R149K", "assignedLabel": "not met"}
{"variantId": "G180H", "assignedLabel": "met"}
{"variantId": "R12F", "assignedLabel": "not met"}
{"variantId": "L511M", "assignedLabel": "not met"}
{"variantId": "S64D", "assignedLabel": "not met"}
{"variantId": "L32Q", "assignedLabel": "not met"}
{"variantId": "H523I", "assignedLabel": "not met"}
{"variantId": "G112V", "assignedLabel": "not met"}
{"variantId": "G240V", "assignedLabel": "not met"}
{"variantId": "D410E", "assignedLabel": "met"}
{"variantId": "L146Y", "assignedLabel": "met"}
